Where these numbers come from: the supplement of paper PMC8149375

Listed below: minimum viability across doses values for each entry.
Test system: UO-31
Experiment: minimum viability across doses, drug + dasatinib, relative to DMSO (fraction); higher = less growth inhibition
Conditions: treatment: drug + dasatinib (fixed dose, not stated); 5 days
quantity measured: minimum viability across doses

{"columns": ["molecule", "assayed system", "quantity measured", "observed measurement"],
 "data": [
  ["CCn1cc(-c2ccnc3[nH]c(-c4cccc(CN(C)C)c4)cc23)c(-c2ccc(NC(=O)N(C)C)cc2)n1 + Cc1nc(Nc2ncc(C(=O)Nc3c(C)cccc3Cl)s2)cc(N2CCN(CCO)CC2)n1 [dasatinib]", "UO-31", "minimum viability across doses", 0.0175],
  ["Cc1cn(-c2cc(NC(=O)c3ccc(C)c(Nc4nccc(-c5cccnc5)n4)c3)cc(C(F)(F)F)c2)cn1 [Nilotinib (AMN-107)] + Cc1nc(Nc2ncc(C(=O)Nc3c(C)cccc3Cl)s2)cc(N2CCN(CCO)CC2)n1 [dasatinib]", "UO-31", "minimum viability across doses", 0.262],
  ["Cc1cnc(NC(=O)Nc2cc(Br)c(C)cc2OC[C@@H]2CNCCO2)cn1 + Cc1nc(Nc2ncc(C(=O)Nc3c(C)cccc3Cl)s2)cc(N2CCN(CCO)CC2)n1 [dasatinib]", "UO-31", "minimum viability across doses", 0.00521],
  ["CNC(=O)c1ccccc1Nc1nc(Nc2ccc(N3CCOCC3)cc2OC)ncc1Cl [NVP-TAE226] + Cc1nc(Nc2ncc(C(=O)Nc3c(C)cccc3Cl)s2)cc(N2CCN(CCO)CC2)n1 [dasatinib]", "UO-31", "minimum viability across doses", 0.00626],
  ["CC(C)(C)c1nc(-c2cccc(NS(=O)(=O)c3c(F)cccc3F)c2F)c(-c2ccnc(N)n2)s1 + Cc1nc(Nc2ncc(C(=O)Nc3c(C)cccc3Cl)s2)cc(N2CCN(CCO)CC2)n1 [dasatinib]", "UO-31", "minimum viability across doses", 0.58],
  ["Nc1nc(N)c2nc(-c3cccc(O)c3)cnc2n1 + Cc1nc(Nc2ncc(C(=O)Nc3c(C)cccc3Cl)s2)cc(N2CCN(CCO)CC2)n1 [dasatinib]", "UO-31", "minimum viability across doses", 0.0458],
  ["Cn1cc(-c2ccc3nnc(Sc4ccc5ncccc5c4)n3n2)cn1 [SGX-523] + Cc1nc(Nc2ncc(C(=O)Nc3c(C)cccc3Cl)s2)cc(N2CCN(CCO)CC2)n1 [dasatinib]", "UO-31", "minimum viability across doses", 0.836],
  ["C=CCc1cccc(/C=N/NC(=O)CN2CCN(Cc3ccccc3)CC2)c1O [PAC-1] + Cc1nc(Nc2ncc(C(=O)Nc3c(C)cccc3Cl)s2)cc(N2CCN(CCO)CC2)n1 [dasatinib]", "UO-31", "minimum viability across doses", 0.0141],
  ["CCOc1cc2ncc(C#N)c(Nc3ccc(F)c(Cl)c3)c2cc1NC(=O)/C=C/CN(C)C [Pelitinib (EKB-569)] + Cc1nc(Nc2ncc(C(=O)Nc3c(C)cccc3Cl)s2)cc(N2CCN(CCO)CC2)n1 [dasatinib]", "UO-31", "minimum viability across doses", 0.0179]
]}
